- assayed-system: SARS-CoV-2 spike protein RBD (RBD-Fc) binding to human ACE2 (ACE2-His-Avi) (Homo sapiens, UniProt Q9BYF1)
- Sequence (Q9BYF1 18-740): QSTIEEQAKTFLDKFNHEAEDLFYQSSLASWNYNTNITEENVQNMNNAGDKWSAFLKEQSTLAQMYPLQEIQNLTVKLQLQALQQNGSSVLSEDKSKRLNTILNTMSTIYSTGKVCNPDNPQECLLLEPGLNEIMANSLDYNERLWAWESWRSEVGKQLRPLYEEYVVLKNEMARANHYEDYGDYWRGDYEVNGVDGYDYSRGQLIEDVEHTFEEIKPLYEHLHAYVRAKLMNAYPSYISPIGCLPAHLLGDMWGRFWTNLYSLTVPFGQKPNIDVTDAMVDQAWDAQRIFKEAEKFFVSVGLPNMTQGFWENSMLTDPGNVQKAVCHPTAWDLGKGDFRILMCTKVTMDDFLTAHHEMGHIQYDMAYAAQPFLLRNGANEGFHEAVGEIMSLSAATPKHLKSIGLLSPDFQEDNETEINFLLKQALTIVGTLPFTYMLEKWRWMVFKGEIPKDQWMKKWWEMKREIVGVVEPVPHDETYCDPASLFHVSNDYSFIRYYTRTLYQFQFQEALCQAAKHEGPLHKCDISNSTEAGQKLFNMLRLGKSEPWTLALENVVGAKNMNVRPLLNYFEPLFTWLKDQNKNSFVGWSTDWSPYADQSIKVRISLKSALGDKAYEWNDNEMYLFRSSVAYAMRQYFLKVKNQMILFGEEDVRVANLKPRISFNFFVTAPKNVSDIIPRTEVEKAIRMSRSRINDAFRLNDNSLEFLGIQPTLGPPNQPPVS
- method-summary: biochemical
- Set-up: species or system human ACE2 / SARS-CoV-2 spike
experimental-endpoint: ACE2–RBD binding inhibition in the primary AlphaLISA screen

| smiles-repr | reading |
| --- | --- |
| CCC(CC)COC(=O)[C@H](C)N[P@](=O)(OC[C@H]1O[C@@](C#N)(c2ccc3c(N)ncnn23)[C@H](O)[C@@H]1O)Oc1ccccc1 | no significant activity |
| CC(C)(O/N=C(\C(=O)N[C@@H]1C(=O)N2C(C(=O)[O-])=C(C[n+]3ccccc3)CS[C@H]12)c1csc(N)n1)C(=O)O | no significant activity |
